Reference source: PubChem BioAssay

target_or_system: Neurogenic locus notch homolog protein 3 (Homo sapiens) (UniProt Q9UM47)
Sequence (Q9UM47 whole entry, looked up): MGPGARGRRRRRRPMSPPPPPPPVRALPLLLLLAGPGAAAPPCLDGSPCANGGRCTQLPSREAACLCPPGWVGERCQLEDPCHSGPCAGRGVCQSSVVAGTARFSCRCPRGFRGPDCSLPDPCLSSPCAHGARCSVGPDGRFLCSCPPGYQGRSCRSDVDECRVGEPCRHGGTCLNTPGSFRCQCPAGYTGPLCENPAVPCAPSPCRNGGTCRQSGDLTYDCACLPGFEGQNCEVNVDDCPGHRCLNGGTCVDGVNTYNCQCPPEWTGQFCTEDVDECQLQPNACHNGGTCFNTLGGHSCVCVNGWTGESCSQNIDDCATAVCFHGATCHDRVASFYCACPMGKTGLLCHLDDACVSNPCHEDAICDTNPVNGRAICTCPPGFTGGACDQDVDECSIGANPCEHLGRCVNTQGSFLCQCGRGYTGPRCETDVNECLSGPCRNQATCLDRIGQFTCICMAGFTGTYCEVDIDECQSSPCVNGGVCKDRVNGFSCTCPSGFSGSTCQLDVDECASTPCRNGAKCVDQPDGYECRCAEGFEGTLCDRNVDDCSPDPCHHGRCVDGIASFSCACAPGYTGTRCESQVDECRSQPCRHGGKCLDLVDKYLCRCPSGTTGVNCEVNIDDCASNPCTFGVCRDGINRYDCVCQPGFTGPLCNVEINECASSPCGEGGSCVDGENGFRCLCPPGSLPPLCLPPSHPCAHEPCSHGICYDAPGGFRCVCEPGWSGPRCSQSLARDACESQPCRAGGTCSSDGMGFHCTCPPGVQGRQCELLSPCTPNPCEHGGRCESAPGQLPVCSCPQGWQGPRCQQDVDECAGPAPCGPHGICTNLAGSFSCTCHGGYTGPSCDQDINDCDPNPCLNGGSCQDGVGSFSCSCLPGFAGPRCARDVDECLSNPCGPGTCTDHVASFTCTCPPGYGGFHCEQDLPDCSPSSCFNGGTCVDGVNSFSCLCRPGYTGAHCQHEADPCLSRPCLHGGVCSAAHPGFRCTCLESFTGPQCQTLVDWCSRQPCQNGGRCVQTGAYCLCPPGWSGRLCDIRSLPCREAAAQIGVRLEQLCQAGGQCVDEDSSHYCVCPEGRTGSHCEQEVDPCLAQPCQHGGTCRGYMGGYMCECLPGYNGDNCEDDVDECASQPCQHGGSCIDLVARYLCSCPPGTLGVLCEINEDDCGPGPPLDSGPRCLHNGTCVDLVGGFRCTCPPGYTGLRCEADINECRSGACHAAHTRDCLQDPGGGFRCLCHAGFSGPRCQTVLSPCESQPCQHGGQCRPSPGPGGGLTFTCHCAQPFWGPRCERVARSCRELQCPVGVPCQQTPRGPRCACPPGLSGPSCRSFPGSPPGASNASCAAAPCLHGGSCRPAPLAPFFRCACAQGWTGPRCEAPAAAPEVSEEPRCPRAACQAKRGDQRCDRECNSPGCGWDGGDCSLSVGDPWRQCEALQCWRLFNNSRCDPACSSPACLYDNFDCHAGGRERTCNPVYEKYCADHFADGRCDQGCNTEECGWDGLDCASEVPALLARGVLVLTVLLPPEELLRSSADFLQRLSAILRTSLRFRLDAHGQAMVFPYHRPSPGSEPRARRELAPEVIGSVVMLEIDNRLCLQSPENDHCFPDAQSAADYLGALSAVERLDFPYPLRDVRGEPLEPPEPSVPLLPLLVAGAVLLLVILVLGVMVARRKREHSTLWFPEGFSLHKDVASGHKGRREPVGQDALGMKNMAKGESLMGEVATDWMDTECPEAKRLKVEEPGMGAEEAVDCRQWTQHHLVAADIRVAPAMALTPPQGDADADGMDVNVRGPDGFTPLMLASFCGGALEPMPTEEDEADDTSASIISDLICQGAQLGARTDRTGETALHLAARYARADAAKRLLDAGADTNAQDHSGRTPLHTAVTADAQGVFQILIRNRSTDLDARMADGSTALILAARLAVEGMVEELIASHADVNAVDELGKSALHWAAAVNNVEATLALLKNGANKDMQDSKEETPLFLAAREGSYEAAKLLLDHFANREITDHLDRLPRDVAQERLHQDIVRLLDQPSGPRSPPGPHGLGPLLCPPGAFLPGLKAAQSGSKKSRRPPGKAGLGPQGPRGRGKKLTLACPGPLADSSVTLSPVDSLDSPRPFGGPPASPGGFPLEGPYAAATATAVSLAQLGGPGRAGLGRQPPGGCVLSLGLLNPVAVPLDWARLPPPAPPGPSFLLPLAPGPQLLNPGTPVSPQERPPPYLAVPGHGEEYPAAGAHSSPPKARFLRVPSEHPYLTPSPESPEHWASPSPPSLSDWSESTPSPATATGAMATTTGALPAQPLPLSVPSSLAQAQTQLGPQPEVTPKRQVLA
experimental_details: NOTCH3 binders on small-molecule microarray, primary screen, biochemical, 635/667 nm fluorescence (AID 1096)
cond: NOTCH3 binding, 635 nm fluorescence, higher = more signal
readout_label: composite z-score
Give the figure by itself; no unit, no explanation.

Solved cases below.
Cc1ccc(S[C@]2(C(=O)O)CC(=O)N(Cc3ccccc3)[C@@H]2c2ccc(CO)cc2I)cc1 | -0.683
COC(=O)[C@@]1(Cc2ccc(OC)cc2)[C@H]2c3cc(C(=O)N4CCCC4)n(Cc4cc(F)c(F)c(F)c4)c3C[C@H]2CN1C(=O)c1ccccc1 | 1.01
CC(C)=CCCC(C)=CCON=C1[C@H]2CCn3c(=O)n(Cc4cc5c(cc4Cl)OCO5)c(=O)n3[C@H]2[C@H](O)[C@@H]2O[C@H]12 | 0.554
O=C1[C@H]2[C@H]3[C@H](O)[C@H](O)CC(=NOCc4ccccc4)[C@@H]3CC[C@H]2C(=O)N1Cc1ccccc1 | 0.797
O=C1C2C=CC(C(O)c3ccc([N+](=O)[O-])cc3)N(Nc3ccc([N+](=O)[O-])cc3)C2C(=O)N1c1ccccc1 (centres undefined) | 1.04
CN1C(=O)C2C(C1=O)C1C=C(CCCO)C2C(c2ccc(CN3CCCC3)cc2)N1C (centres undefined) | -0.575

Task: // lookup composite z-score for `CCc1cc2c(nc1CC)CCN(CCC(C)=NOC[C@@H](O)COCc1ccco1)C2`
Output: 1.05

Task: Field entry: `C=CCOC(=O)[C@H]1[C@@H]2C(=O)O[C@@H](c3ccccc3)[C@@H](c3ccccc3)N2[C@@H](c2ccc(OCCOC(=O)[C@H]3C[C@H]4C(=O)N[C@@H](Cc5ccccc5)C(=O)N4[C@H]3c3ccc(O)cc3)cc2)[C@]12C(=O)Nc1ccccc12`
Output: 1.06

Task: Try this molecule too: `CC(=O)OC[C@H]1O[C@@H](ON=C[C@@H](C)[C@H](OCc2ccccc2)C(C)C)[C@H](OC(C)=O)[C@@H](OC(C)=O)[C@@H]1OC(C)=O`
Output: 0.751

Task: Consider next the molecule `CCN1C(=O)[C@H]2[C@H]3[C@H](O)[C@H](O)CC(=NOCc4ccccc4)[C@@H]3CC[C@H]2C1=O` in the same way.
Output: 0.761

Task: Request: `COc1ccc([Si](C)(C)[C@@H]2[C@@H](CCO)O[C@]3(C(=O)N(Cc4ccc(NC(C)=O)cc4)c4ccccc43)[C@H]2C)cc1`
Output: 0.949

Task: Similarly, `O=C(CS)NCCCCCNC(=O)[C@H]1C[C@H]2C(=O)N3CCC[C@H]3C(=O)N2[C@H]1c1cccc(OCCO)c1` ?
Output: 1.1

Task: And `CO[C@@H]1COC(=O)CCC[C@@H](C)[C@H](OC)COC(=O)CCC[C@H]1C` ?
Output: 0.636

Task: Again, but for `COc1ccc([Si](C)(C)[C@@H]2[C@@H](CC(=O)N3CCC[C@H]3CO)O[C@]3(C(=O)N(Cc4cccc(N5CCC5=O)c4)c4ccccc43)[C@H]2C)cc1`
Output: 1.15

----------
Tested on: Fibrinogen (Alexa647-labelled)
experimental_details: fibrinogen binders on compound microarrays, profiling panel, artefact control for SMM control-protein annotation, biochemical, small-molecule microarray, 635/667 nm fluorescence (AID 1131);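 further: z-score merges 667 nm fluorescence with per-spot signal-to-noise over triplicate slides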
cond: fibrinogen-A647 binding fluorescence, higher = more signal
Values of composite z-score greater than or equal to 0.9 map to condition met; values below map to condition not met.

Example results:
O=C1[C@H]2[C@H]3[C@H](O)[C@H](O)CC(=NOC[C@@H](O)COCc4ccco4)[C@H]3CC[C@H]2C(=O)N1C1CCCCC1 | condition not met
C=COC[C@H]1CN2[C@@H](CC[C@@H](C)[C@@H]2c2ccc(Br)cc2)C(=O)O1 | condition not met
CC(CCN1CCc2nc(-c3ccccc3)c(-c3ccccc3)cc2C1)=NO[C@@H](C)c1cn([C@H](CO)Cc2ccccc2)nn1 | condition met
COC(=O)[C@H](C)NC(=O)[C@@H](C)CO | condition met
C=C(/C(=C/C[C@H](OC(=O)c1ccncc1)c1ccc(OCCO)cc1)c1cnc2ccccc2c1)C(C)C | condition not met
O=C1O[C@@H](c2ccccc2)[C@@H](c2ccccc2)N2[C@@H](c3ccc(OCCO)cc3)[C@]3(C(=O)Nc4ccc(C#CCCO)cc43)[C@@H](C(=O)N3CCCCCCC3)[C@H]12 | condition met
CC(C)CON=C1C[C@@H](O)[C@@H](O)[C@@H]2[C@@H]3C(=O)N([C@@H](C)c4ccccc4)C(=O)[C@@H]3CC[C@H]12 | condition met
C[N+](C)(C)CCCCCCNC(=O)[C@@H]1C[C@@H]2C(=O)N3CCC[C@H]3C(=O)N2[C@@H]1c1cccc(OCCO)c1 | condition not met

Attention now turns to another entry.
Task: # bool: composite z-score of `CO[C@H]1O[C@H](CO)[C@@H](OC(=O)Nc2ccc3c(c2)OCO3)[C@H](OC(=O)Nc2ccccc2-c2ccccc2)[C@@H]1OC(=O)Nc1ccccc1-c1ccccc1` >= 0.9
Output: condition met
